- SUBJECT OF TEST: Acetylcholinesterase (Electrophorus electricus, UniProt O42275)
- Sequence (O42275 whole entry): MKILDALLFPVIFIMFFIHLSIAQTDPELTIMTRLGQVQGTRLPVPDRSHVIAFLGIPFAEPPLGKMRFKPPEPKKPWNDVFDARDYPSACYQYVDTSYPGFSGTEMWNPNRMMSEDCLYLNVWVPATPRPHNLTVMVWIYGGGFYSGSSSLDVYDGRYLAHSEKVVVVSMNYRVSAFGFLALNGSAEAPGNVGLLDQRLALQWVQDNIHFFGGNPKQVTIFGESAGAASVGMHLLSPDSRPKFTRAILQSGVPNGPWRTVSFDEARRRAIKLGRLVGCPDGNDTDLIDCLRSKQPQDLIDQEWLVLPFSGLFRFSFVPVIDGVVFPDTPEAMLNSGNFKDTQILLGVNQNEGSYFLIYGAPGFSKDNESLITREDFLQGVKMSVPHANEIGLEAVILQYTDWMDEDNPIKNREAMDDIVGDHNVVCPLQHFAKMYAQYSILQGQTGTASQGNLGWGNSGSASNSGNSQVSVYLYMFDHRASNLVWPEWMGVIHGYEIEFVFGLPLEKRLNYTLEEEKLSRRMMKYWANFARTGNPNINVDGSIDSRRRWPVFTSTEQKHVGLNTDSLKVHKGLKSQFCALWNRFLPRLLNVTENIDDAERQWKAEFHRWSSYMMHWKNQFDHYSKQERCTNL
ASSAY METRIC: Ki (µM)
One number for each entry, in µM.

Lookup: What does the record list as Ki for COc1ccc(C2C(C#N)=C(NC(=O)CN3CCN(c4ccccc4)CC3)Oc3c2c(=O)oc2ccccc32)cc1 (stereo unspecified) ?
Found: 3.19

---

Provide the reported IC50 of each item.
- SUBJECT OF TEST: Acetylcholinesterase (Electrophorus electricus, UniProt O42275)
- PROTOCOL TEXT: Inhibition of electric eel AChE using acetylthiocholine iodide as substrate measured for 6 mins by Ellman's method
- CONDITIONS: read-out: IC50
Numbers only, in µM.

Example results:
N#CC1=C(NC(=O)CN2CCOCC2)Oc2c(c(=O)oc3ccccc23)C1c1ccccc1 (centres undefined)	23.9
COc1ccc(C2C(C#N)=C(NC(=O)CN3CCOCC3)Oc3c2c(=O)oc2ccccc32)cc1OC (centres undefined)	3.25
COc1ccc(C2C(C#N)=C(NC(=O)CN3CCOCC3)Oc3c2c(=O)oc2ccccc32)c(OC)c1 (centres undefined)	25.6

Below are some compounds; for each one, tell me its IC50.
1. COc1ccc(C2C(C#N)=C(NC(=O)CN3CCOCC3)Oc3c2c(=O)oc2ccccc32)cc1 (centres undefined)
2. N#CC1=C(NC(=O)CN2CCN(c3ccccc3)CC2)Oc2c(c(=O)oc3ccccc23)C1c1ccc(Cl)cc1 (centres undefined)
3. COc1ccc(C2C(C#N)=C(NC(=O)CN3CCN(c4ccccc4)CC3)Oc3c2c(=O)oc2ccccc32)cc1 (centres undefined)
4. COc1ccc(C2C(C#N)=C(NC(=O)CN3CCN(c4ccccc4)CC3)Oc3c2c(=O)oc2ccccc32)cc1OC (centres undefined)
5. COc1ccc(C2C(C#N)=C(NC(=O)CN3CCN(c4ccccc4)CC3)Oc3c2c(=O)oc2ccccc32)c(OC)c1 (centres undefined)

Found:
2.05
6.33
1.12
1.42
31.4

Below are some compounds; for each one, tell me its IC50.
1. Cc1ccc(C2C(C#N)=C(NC(=O)CN3CCN(c4ccccc4)CC3)Oc3c2c(=O)oc2ccccc32)c(C)c1 (centres undefined)
2. N#CC1=C(NC(=O)CN2CCN(c3ccccc3)CC2)Oc2c(c(=O)oc3ccccc23)C1c1ccccc1 (centres undefined)

Found:
1: 32.9; 2: 11.5

Lookup: What does the record list as IC50 for N#CC1=C(NC(=O)CN2CCOCC2)Oc2c(c(=O)oc3ccccc23)C1c1ccc(Cl)cc1 (centres undefined) ?
Found: 14.6
